Tested on: NCI-H23
Test: NCI tumour cell line growth inhibition, 48 h
Active and inactive are the calls of the source. Rule as the data show it: active = GI50 up to about 1.1 µM and inactive = higher.
observationType: GI50

compound	GI50
COc1nc2ccc(CNc3ccc(C(=O)NC(CCC(=O)O)C(=O)O)cc3)cc2nc1OC (stereo not drawn)	> 100 µM (inactive)
CCSc1c2ccccc2nc2c(OC)ccc(OC)c12	> 10 µM (inactive)
O=c1[nH]c(=S)c2cc3c(=S)[nH]c(=O)n(CCO)c3nc2n1CCO	> 100 µM (inactive)
CCCCCCCCCCCCCCC[C@@H](O)C[N+](C)(C)CCO	2.06 µM (inactive)
O=C1OC(C(O)C(O)C(O)CO)C(O)C1O (stereo not drawn)	> 100 µM (inactive)

Report GI50 for each item below.
1. O=[N+]([O-])c1ccc(C(Nc2ccccc2)P(c2ccccc2)c2ccccc2)cc1 (stereo not drawn)
2. CN(C)Cc1cc(C(=O)/C=C/c2ccc(Cl)c(Cl)c2)cc(CN(C)C)c1O
3. CCCC(CCC(N)=O)(CCC(N)=O)[N+](=O)[O-]

Result:
["> 100 µM (inactive)", "5.69 µM (inactive)", "> 100 µM (inactive)"]

====

Test system: KM-20L2
Assay: NCI tumour cell line growth inhibition, 48 h
Activity calls are given as the source filed them. No stated cut-off is given here; in the data, active = GI50 up to about 1.1 µM and inactive = higher.
observationType: GI50

See these solved cases before continuing.
compound	GI50
O=C(CCN(CCO)CCO)Nc1ccc2c(c1)C(=O)c1ccc(NC(=O)CCN(CCO)CCO)cc1C2=O	48.4 µM (inactive)
Cc1ccccc1NC(=O)C(=O)c1c(O)c2ccc(O)cc2oc1=O	> 100 µM (inactive)

Report GI50 for each item below.
1. O=C(CC12C3C4C1C1C2C3C41CC(=O)NO)NO (stereo not given)
2. Cc1cc(N)c2cc(NC(=O)CCCCCCCCC(=O)Nc3ccc4nc(C)cc(N)c4c3)ccc2n1
3. O=C(NC1CCC[C@H]1OC(=O)c1ccccc1)c1ccccc1 (stereo not given in full)
4. CC(C)OP(=O)(OC(C)C)/C(I)=N/Nc1ccc([N+](=O)[O-])cc1
5. C/C(=N\N=C(/S)N1CC2CCC(CC2)C1)c1cccc[n+]1[O-]
6. CCN(CC)CCNC(=O)c1ccccc1Nc1c(Cl)cccc1Cl

Result:
["38.2 µM (inactive)", "29.1 µM (inactive)", "> 10 µM (inactive)", "> 100 µM (inactive)", "1.52 µM (inactive)", "2.92 µM (inactive)"]

Report GI50 for each item below.
1. CCOC(=O)N1C(=O)C2C3C=CC(C2C1=O)C1C2C(=O)N(C(=O)OCC)C(=O)C2C31 (stereo not given)
2. CSc1nc2[nH]c(=O)c(C)nc2c(=O)[nH]1
3. COc1ccc(-c2onc(-c3ccc([N+](=O)[O-])cc3)c2C2=NCCN2)cc1
4. CSc1ccc2c(cc1=O)C(NC(=O)c1ccc(OC(C)=O)cc1)CCc1cc(O)c(O)c(O)c1-2 (stereo not given)
5. COc1ccc(C(=O)O)c2c(=O)c3cccnc3[nH]c12
6. COc1c2c(cc3c1C(=O)Cc1ccc4c(c1CN(C)CC3)OCO4)OCO2

Result:
1. > 77.1 µM (inactive)
2. > 100 µM (inactive)
3. > 100 µM (inactive)
4. 37.5 µM (inactive)
5. > 100 µM (inactive)
6. 38.2 µM (inactive)

Ask: Return reported GI50; argument: C=Cc1cncc(C#N)c1CCc1c(C#N)cncc1C=C
Result: > 10 µM (inactive)

====

Would you mind telling me the reported GI50 of each entry?
Test system: SF-268
Test: NCI tumour cell line growth inhibition, 48 h
Calls of active or inactive are those of the source. No stated cut-off is given here; in the data, active = GI50 up to about 1.1 µM and inactive = higher.

CCCCN(CCCC)CCCn1cnc2ncccc2c1=O > 100 µM (inactive)
Cc1ccc(/N=C2\C(=N/c3ccc(C)cc3)N(c3ccc(C)cc3)C(=S)N2C(=O)c2ccccc2)cc1 > 100 µM (inactive)

Ask: Return reported GI50; argument: CCC/C(Cl)=N\OC(=O)Nc1ccc(Br)cc1
Result: 17.7 µM (inactive)

====

Would you mind telling me the reported GI50 of each entry?
Tested on: UACC-257
Experiment: NCI tumour cell line growth inhibition, 48 h
Calls of active or inactive are those of the source. No stated cut-off is given here; in the data, active = GI50 up to about 1.1 µM and inactive = higher.

compound	observationType	result
O=C1CC(C(O)C(O)C(O)CO)CC(=O)N1 (centres undefined)	GI50	> 100 µM (inactive)
CC(C(=O)c1ccccc1)C1(O)C(=O)Nc2ccc(Cl)cc21 (centres undefined)	GI50	31.6 µM (inactive)
Cc1ccc(S(=O)(=O)N2CC(CCN)c3ccccc32)cc1 (centres undefined)	GI50	4.78 µM (inactive)

Now, please, on to the next compound.
Ask: Return reported GI50; argument: Cc1nc2c(n1CCC(C)C)C(=O)c1ccccc1C2=O
Result: 27.7 µM (inactive)

====

Would you mind telling me the reported GI50 of each entry?
Test system: ACHN
Test: NCI tumour cell line growth inhibition, 48 h
Active and inactive are the calls of the source. Rule as the data show it: active = GI50 up to about 1.1 µM and inactive = higher.

See these solved cases before continuing.
molecule	GI50
CCOC(=O)C12CCCC1(O)N(NC(=O)OC)C(C)=C2C(=O)OC (centres undefined)	> 100 µM (inactive)
CNC(=O)N1CCN(C(=O)NC)CCN(C(=O)NC)CC1	> 100 µM (inactive)

Report GI50 for each item below.
1. O=C(CCC(=O)C(C(=O)c1ccccc1)c1ccccc1)Nc1cccc(C(F)(F)F)c1 (centres undefined)
2. C=Cc1cncc(C#N)c1CCc1c(C#N)cncc1C=C

Result:
> 100 µM (inactive)
> 10 µM (inactive)

====

Tested on: SF-295
Assay: NCI tumour cell line growth inhibition, 48 h
Calls of active or inactive are those of the source. Cut-off read from the data, not from the text of the source: active = GI50 up to about 1.1 µM and inactive = higher.
observationType: GI50

compound	GI50
O=C(/C=C/c1ccc(OCCCOc2ccc(/C=C/C(=O)c3ccccc3)cc2)cc1)c1ccccc1	> 100 µM (inactive)
CC1C(=O)CCC1C(Sc1ccccc1)(Sc1ccccc1)Sc1ccccc1 (centres undefined)	36.8 µM (inactive)
Cc1cccc(C)c1N1C(=O)C2c3[nH]c4ccccc4c3C3CCC(C(C)(C)C)CC3C2C1=O (centres undefined)	17.3 µM (inactive)
O=S(=O)(O)c1ccc2c(/N=N/c3ccc(/N=N/c4ccccc4)cc3)c(O)c(S(=O)(=O)O)cc2c1	> 100 µM (inactive)
CC(=O)NCCC1CN(C(=O)/C=C\I)c2ccccc21 (centres undefined)	15.3 µM (inactive)
CC(=O)Nc1ccc(OCC(O)CO)cc1 (centres undefined)	> 100 µM (inactive)

Report GI50 for each item below.
1. Cc1c(-c2ccccc2)cc(O)c2nc3ccccc3n12
2. Cc1ccc(S(=O)(=O)Oc2cc(S(=O)(=O)O)cc3cc(S(=O)(=O)O)cc(N)c23)cc1
3. Cc1oc2c(c1C)S(=O)(=O)C(C#N)=C(N(C)C)N2
4. O=C(/C=C/c1cccc([N+](=O)[O-])c1)c1cccnc1
5. Cc1cc2nc3c(C#N)c(-c4ccccc4)cc(Nc4ccc(Cl)cc4)n3c2cc1C

Result:
1. 49.8 µM (inactive)
2. > 100 µM (inactive)
3. > 100 µM (inactive)
4. 46 µM (inactive)
5. > 100 µM (inactive)

Report GI50 for each item below.
1. Nc1ccc2c(c1)C1Oc3ccccc3CC1CO2 (centres undefined)
2. C/C(=N\c1ccc(Cl)c(Cl)c1)c1ccncc1

Result:
["> 100 µM (inactive)", "> 100 µM (inactive)"]

====

Would you mind telling me the reported GI50 of each entry?
System: CAKI-1
Test: NCI tumour cell line growth inhibition, 48 h
The source made the active and inactive calls. No stated cut-off is given here; in the data, active = GI50 up to about 1.1 µM and inactive = higher.

Report GI50 for each item below.
1. COP(=O)(OC)/C(=C/c1cn(C(C)=O)c2ccccc12)NC(C)=O
2. Cc1cc2c(=O)c3ccc(Cl)cc3[nH]c2c(C(=O)O)c1C
3. COc1cccc(C2c3cc4c(cc3OC(Nc3ccccc3)C2C)OCO4)c1OC (stereo not given)
4. CCCC(CCC(N)=O)(CCC(N)=O)[N+](=O)[O-]
5. COc1ccc(-c2onc(-c3ccc([N+](=O)[O-])cc3)c2C2=NCCN2)cc1
6. COC(=O)CNC(=O)CCC(C)[C@H]1CCC2C3C(C[C@H](OC(C)=O)[C@@]21C)[C@@]1(C)CCC2(C[C@H]1C[C@H]3OC(C)=O)OOC1(CC[C@]3(C)C4C[C@H](OC(C)=O)[C@@]5(C)C(CC[C@@H]5C(C)CCC(=O)NCC(=O)OC)C4[C@H](OC(C)=O)C[C@@H]3C1)OO2 (stereo not given in full)
7. COc1cc(-c2[o+]c3cc(O)cc(OC4OC(CO)C(O)C(O)C4O)c3cc2OC2OC(CO)C(O)C(O)C2O)cc(OC)c1O (stereo not given)

Result:
["40.9 µM (inactive)", "> 100 µM (inactive)", "3.87 µM (inactive)", "> 100 µM (inactive)", "> 100 µM (inactive)", "2.15 µM (inactive)", "> 100 µM (inactive)"]

Report GI50 for each item below.
1. O=c1c2cc(Br)cc(Br)c2[nH]c(=S)n1-c1ccccc1
2. N#Cc1c(-c2ccccc2)c(/N=N/c2ccc(F)cc2)c(=O)n2c1[nH]c1ccccc12
3. CC(O)(/C=C/c1ccccc1)P(=O)(O)c1ccccc1 (stereo not given)
4. Cc1ccc(S(=O)(=O)NC2CCCCO2)cc1 (stereo not given)
5. C=C1C(=O)[C@]23C[C@H]1C[C@@H](O)[C@H]2[C@]1(COC3=O)[C@@H](OC(C)=O)CC[C@@](C)(COC(C)=O)[C@H]1C=O [LOXOTHYRIN A]
6. O=C(N/N=C\c1ccc([N+](=O)[O-])cc1)Nc1cccc2ccccc12
7. Cc1nn(C(=O)c2ccccc2O)c2c1C(c1ccc(O)cc1O)SC(=N)N2 (stereo not given)

Result:
1. 54.5 µM (inactive)
2. 3.92 µM (inactive)
3. > 100 µM (inactive)
4. > 100 µM (inactive)
5. 9.38 µM (inactive)
6. 15.3 µM (inactive)
7. 4.29 µM (inactive)

Ask: Return reported GI50; argument: CN(C)c1ccc(/C=N/c2ccc(-c3nc4ccccc4s3)cc2)cc1
Result: 28.6 µM (inactive)
